target: DB_D190A (human, UniProt P03372 176-250, D190A)
Sequence (P03372 176-250 D190A): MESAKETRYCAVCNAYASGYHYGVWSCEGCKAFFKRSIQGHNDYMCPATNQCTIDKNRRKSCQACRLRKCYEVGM
method: ITC
readout kind: Kd (nM)
The reply should contain only the number, in nM.

Query block: Item ERE duplex (dsDNA) DNA 1: CCCAGGTCACAGTGACCTGCG DNA 2: CGCAGGTCACTGTGACCTGGG : provide Kd
Result block: 67
